Test: Solubility in chloroform at 25 deg. C. (model of skin lipids)
Type: physicochemical
Details: chloroform, organic solvent or mixture, at 25 deg. C.; average of triplicate

# molecule, solubility (µg/mL)
data = [
    ("N[C@@H](Cc1ccccc1)C(=O)O [Phenylalanine (Phe), Phenylalanine, reference compound]", 0.21),
]

* * *

Test: Solubility in chloroform at 25 deg. C. (model of skin lipids)
Format: physicochemical
Conditions: at 25 deg. C.; average of triplicate
Counter-ions that a name gives are not always drawn.
measured.property: Solubility in chloroform (µg/mL)

# molecule, result.value
records = [
    ("NCC(CC(=O)O)c1ccc(Cl)cc1 (stereo not drawn) [Bac. maleate]", 0.026),
    ("NCC(CC(=O)O)c1ccc(Cl)cc1 (stereo not drawn) [Bac. sodium salt]", 3.47),
    ("NCC(CC(=O)O)c1ccc(Cl)cc1 (stereo not drawn) [Bac. propane sulfonate]", 8.74),
]
